# Test system: 2Sp-muMax20 (muMax20 with two 2,6-bis(methyl)pyridine Cys staples)
# Method notes: PBM 8-mer E-score (E-score (rank enrichment, -0.5 to 0.5)); higher = stronger preferential binding
The full ranking holds about 33,000 sequences; the median of “E-score (rank enrichment, -0.5 to 0.5)” is about -0.0043, and the highest 2% start at about 0.24. Many of the other results were omitted from the sample, so the highest values are more common in it than they were.
Consider the following sequences and their measured PBM 8-mer E-score readings.
Measured property: PBM 8-mer E-score

{"Query sequence": "GCTTTTAA", "Study target": "2Sp-muMax20 (muMax20 with two 2,6-bis(methyl)pyridine Cys staples)", "Measured property": "PBM 8-mer E-score", "Result value": -0.0089}
{"Query sequence": "GCTTTTTA", "Study target": "2Sp-muMax20 (muMax20 with two 2,6-bis(methyl)pyridine Cys staples)", "Measured property": "PBM 8-mer E-score", "Result value": 0.303}
{"Query sequence": "AGCGTGTA", "Study target": "2Sp-muMax20 (muMax20 with two 2,6-bis(methyl)pyridine Cys staples)", "Measured property": "PBM 8-mer E-score", "Result value": 0.119}
{"Query sequence": "CCTTTTTA", "Study target": "2Sp-muMax20 (muMax20 with two 2,6-bis(methyl)pyridine Cys staples)", "Measured property": "PBM 8-mer E-score", "Result value": -0.0668}

###

# System: 2Sp-muMax20 (muMax20 with two 2,6-bis(methyl)pyridine Cys staples)
# Method notes: PBM 8-mer E-score (E-score (rank enrichment, -0.5 to 0.5)); higher = stronger preferential binding
In all, about 33,000 sequences were measured (“E-score (rank enrichment, -0.5 to 0.5)”: median about -0.0043, highest 2% from about 0.24 on). The list comes from a sample in which the highest values are over-represented; it also holds close analogues and randomly drawn sequences.
Consider the following sequences and their measured PBM 8-mer E-score readings.

{"Query sequence": "CTAATCTA", "PBM 8-mer E-score": 0.0847}
{"Query sequence": "AGCGTAAC", "PBM 8-mer E-score": 0.041}
{"Query sequence": "ATCCCCAT", "PBM 8-mer E-score": 0.104}
{"Query sequence": "ACGGGTGA", "PBM 8-mer E-score": -0.227}
{"Query sequence": "CCATAATA", "PBM 8-mer E-score": 0.161}
{"Query sequence": "ACTGGCTC", "PBM 8-mer E-score": -0.126}
{"Query sequence": "AACATAAA", "PBM 8-mer E-score": 0.164}
{"Query sequence": "CACATAAC", "PBM 8-mer E-score": 0.0249}
{"Query sequence": "AACATGTT", "PBM 8-mer E-score": 0.304}
{"Query sequence": "CCCCCACA", "PBM 8-mer E-score": -0.205}
{"Query sequence": "GTAATCTA", "PBM 8-mer E-score": 0.259}
{"Query sequence": "AATACGCT", "PBM 8-mer E-score": 0.217}
{"Query sequence": "AATTGTGT", "PBM 8-mer E-score": 0.124}
{"Query sequence": "ACATAATA", "PBM 8-mer E-score": 0.262}
{"Query sequence": "CGTGATCA", "PBM 8-mer E-score": 0.245}
{"Query sequence": "GATCTATA", "PBM 8-mer E-score": -0.0283}
{"Query sequence": "AATACAAA", "PBM 8-mer E-score": 0.28}
{"Query sequence": "CCTGCCAC", "PBM 8-mer E-score": -0.0854}
{"Query sequence": "AACATGTC", "PBM 8-mer E-score": 0.143}
{"Query sequence": "TACATGTA", "PBM 8-mer E-score": 0.265}
{"Query sequence": "GTATAATA", "PBM 8-mer E-score": 0.26}
{"Query sequence": "ACATAGTA", "PBM 8-mer E-score": 0.118}
{"Query sequence": "GCCCCAAC", "PBM 8-mer E-score": 0.267}
{"Query sequence": "CCCCCACC", "PBM 8-mer E-score": -0.321}
{"Query sequence": "GGAATTTA", "PBM 8-mer E-score": -0.0803}
{"Query sequence": "AAGAGACA", "PBM 8-mer E-score": 0.252}
{"Query sequence": "CAAGCCAC", "PBM 8-mer E-score": -0.143}
{"Query sequence": "ATTATGCC", "PBM 8-mer E-score": 0.128}
{"Query sequence": "AACCCCAC", "PBM 8-mer E-score": 0.136}
{"Query sequence": "ACCTGGAT", "PBM 8-mer E-score": -0.149}
{"Query sequence": "CGGAATAC", "PBM 8-mer E-score": -0.144}
{"Query sequence": "GACCCGCC", "PBM 8-mer E-score": 0.106}
{"Query sequence": "ATTTGAAG", "PBM 8-mer E-score": 0.0351}
{"Query sequence": "CCCAACAC", "PBM 8-mer E-score": 0.00365}
{"Query sequence": "GATACGCA", "PBM 8-mer E-score": 0.0806}
{"Query sequence": "AATACAAG", "PBM 8-mer E-score": 0.245}
{"Query sequence": "ACCCCACC", "PBM 8-mer E-score": 0.236}
{"Query sequence": "AGTGTAAT", "PBM 8-mer E-score": 0.114}
{"Query sequence": "ATCCCCAG", "PBM 8-mer E-score": 0.0388}
{"Query sequence": "CTCTCAAA", "PBM 8-mer E-score": -0.015}
{"Query sequence": "CATACAAA", "PBM 8-mer E-score": 0.0246}
{"Query sequence": "CCGAGCTC", "PBM 8-mer E-score": -0.137}
{"Query sequence": "GCATAGTA", "PBM 8-mer E-score": 0.273}
{"Query sequence": "AACATGTA", "PBM 8-mer E-score": 0.224}
{"Query sequence": "ACCCCACT", "PBM 8-mer E-score": 0.183}
{"Query sequence": "GCATAATA", "PBM 8-mer E-score": 0.243}
{"Query sequence": "CTGCTCGC", "PBM 8-mer E-score": -0.104}
{"Query sequence": "ACATAATG", "PBM 8-mer E-score": 0.193}
{"Query sequence": "CTTATATA", "PBM 8-mer E-score": 0.166}
{"Query sequence": "ATCCCCAC", "PBM 8-mer E-score": 0.247}
{"Query sequence": "ACCCCAAT", "PBM 8-mer E-score": 0.248}
{"Query sequence": "AACATGTG", "PBM 8-mer E-score": 0.36}
{"Query sequence": "CTCATGCC", "PBM 8-mer E-score": 0.0321}
{"Query sequence": "AATCTATA", "PBM 8-mer E-score": 0.147}
{"Query sequence": "AACATGAG", "PBM 8-mer E-score": 0.0341}
{"Query sequence": "CATGCACA", "PBM 8-mer E-score": 0.251}
{"Query sequence": "ACTGTGCC", "PBM 8-mer E-score": 0.0364}
{"Query sequence": "CGCCTTCA", "PBM 8-mer E-score": -0.00719}
{"Query sequence": "CCAGAAAA", "PBM 8-mer E-score": -0.0128}
{"Query sequence": "ACGTCCCG", "PBM 8-mer E-score": -0.326}
{"Query sequence": "AATGCATT", "PBM 8-mer E-score": 0.356}
{"Query sequence": "ATAATATA", "PBM 8-mer E-score": 0.194}
{"Query sequence": "GAGCTCAC", "PBM 8-mer E-score": 0.0534}
{"Query sequence": "CTCGCCGC", "PBM 8-mer E-score": -0.0225}
{"Query sequence": "CCATCTTA", "PBM 8-mer E-score": -0.102}
{"Query sequence": "GACATAAC", "PBM 8-mer E-score": 0.146}
{"Query sequence": "ACGAGCCG", "PBM 8-mer E-score": -0.0923}
{"Query sequence": "AATGCAAC", "PBM 8-mer E-score": 0.136}
{"Query sequence": "TCCCCACA", "PBM 8-mer E-score": 0.235}
{"Query sequence": "GCCATTCC", "PBM 8-mer E-score": -0.155}
{"Query sequence": "GCCACGGC", "PBM 8-mer E-score": -0.219}
{"Query sequence": "CCTCAGAG", "PBM 8-mer E-score": -0.228}
{"Query sequence": "ATGGTCCG", "PBM 8-mer E-score": -0.11}
{"Query sequence": "ATATGAGC", "PBM 8-mer E-score": 0.148}
{"Query sequence": "GGTGATCA", "PBM 8-mer E-score": 0.0137}
{"Query sequence": "GTAATATA", "PBM 8-mer E-score": 0.255}
{"Query sequence": "CCTTTAAC", "PBM 8-mer E-score": -0.0714}
{"Query sequence": "TGTGCACA", "PBM 8-mer E-score": 0.0196}
{"Query sequence": "CGTGATCC", "PBM 8-mer E-score": -0.0859}
{"Query sequence": "GTTATAGA", "PBM 8-mer E-score": 0.175}
{"Query sequence": "GACATGTA", "PBM 8-mer E-score": 0.217}
{"Query sequence": "CCTGCCCG", "PBM 8-mer E-score": -0.0476}
{"Query sequence": "ATAATCTA", "PBM 8-mer E-score": 0.141}
{"Query sequence": "TAACGAAA", "PBM 8-mer E-score": 0.0771}
{"Query sequence": "CGTGGAAG", "PBM 8-mer E-score": 0.163}
{"Query sequence": "CATGGCTA", "PBM 8-mer E-score": 0.245}
{"Query sequence": "ACATAATC", "PBM 8-mer E-score": 0.109}
{"Query sequence": "CCATAGTA", "PBM 8-mer E-score": 0.144}
{"Query sequence": "AAGCTGCT", "PBM 8-mer E-score": -0.0983}
{"Query sequence": "AACATAAG", "PBM 8-mer E-score": 0.0487}
{"Query sequence": "GCCAATGA", "PBM 8-mer E-score": 0.00492}
